Assay Readout: melting point

Example cases with answers are listed next.
[
  {
    "Molecule": "NC(=O)c1c(-c2ccccc2)c(Cl)n2c1CN(C(=O)NC1CCOCC1)CC2 [Compound 93]",
    "melting point": "227 to 229 °C"
  },
  {
    "Molecule": "NC(=O)c1c(-c2cccc(F)c2)c(Cl)n2c1CN(C(=O)NCC1(CO)CC1)CC2 [Compound 75]",
    "melting point": "204 to 206 °C"
  },
  {
    "Molecule": "COCC(C)(C)NC(=O)N1CCn2c(c(C(N)=O)c(-c3ccc(OC)cc3)c2C2CC2)C1 [Compound 57]",
    "melting point": "168 to 170 °C"
  }
]

Look up melting point for this molecule: COc1ccc(-c2c(C(N)=O)c3n(c2C2CC2)CCN(C(=O)NC24CC5CC(CC(C5)C2)C4)C3)cc1 [Compound 55]
224 to 226 °C

Look up melting point for this molecule: NC(=O)c1c(-c2cccc(F)c2)c(Cl)n2c1CN(C(=O)N[C@H]1CC[C@H](O)CC1)CC2 [Compound 83]
251 to 253 °C

Look up melting point for this molecule: Cc1cccc(-c2c(C(N)=O)c3n(c2Cl)CCN(C(=O)NC(C)(C)C)C3)c1 [Compound 61]
196 to 197 °C

Look up melting point for this molecule: CC(C)(C)NC(=O)N1CCn2c(C#N)c(-c3cccc(F)c3)c(C(N)=O)c2C1 [Compound 105]
> 217 °C

Look up melting point for this molecule: NC(=O)c1c(-c2cccc(F)c2)c(Cl)n2c1CN(C(=O)NCC(F)(F)F)CC2 [Compound 77]
208 to 213 °C

Look up melting point for this molecule: N#Cc1c(-c2cccc(F)c2)c(C(N)=O)c2n1CCN(C(=O)NC1CCC(F)(F)CC1)C2 [Compound 110]
237 to 240 °C

Recorded values, source patent US9233965B2.
